Attribution: ChEMBL document CHEMBL1137433

test system: Klebsiella pneumoniae; assay: Antibacterial activity against Klebsiella pneumoniae; assay type: functional
Give measured MIC for each item. Keep answers brief.

// known answers, use as guide
Memo: `N#C/C(=C/c1cccs1)CNC(=O)Nc1ccc(Cl)cc1Cl` , reported MIC: > 50 µg/mL

Memo: `N=c1c(Cc2cccs2)c[nH]c(=O)n1-c1ccc(Cl)cc1` , reported MIC: > 50 µg/mL

Memo: `N=c1c(Cc2cccs2)c[nH]c(=O)n1-c1ccc(Cl)cc1Cl` , reported MIC: > 50 µg/mL

Memo: `N=c1c(Cc2ccccc2Cl)c[nH]c(=O)n1-c1ccc(Cl)c(Cl)c1` , reported MIC: > 50 µg/mL

Memo: `N=C1CCNC(=O)N1c1ccc(Cl)cc1Cl` , reported MIC: 50 µg/mL

Memo: `N#C/C(=C/c1ccc(Cl)c(Cl)c1)CNC(=O)Nc1ccc(Cl)c(Cl)c1` , reported MIC: 1.56 µg/mL

Further cases:
Memo: `Nc1c(Cc2ccccc2)cnc(=S)n1-c1ccccc1` , reported MIC: > 50 µg/mL

* * *

Give measured MIC for each item. Keep answers brief.
system: Klebsiella pneumoniae; assay: Antibacterial activity against Klebsiella pneumoniae; format: functional

Memo: `N#C/C(=C/c1ccccc1)CNC(=S)Nc1ccccc1` , reported MIC: 50 µg/mL

Memo: COC(c1ccccc1)C1CN(Cc2ccccc2)C(=O)N(c2ccc(Cl)c(Cl)c2)C1=N (configuration not stated) , reported MIC: 3.12 µg/mL

Memo: `Cc1ccc(NC(=O)NC/C(C#N)=C\c2ccc(Cl)c(Cl)c2)cc1Cl` , reported MIC: > 50 µg/mL

Memo: `Cc1ccc(NC(=O)NC/C(C#N)=C\c2ccccc2Cl)cc1Cl` , reported MIC: > 50 µg/mL

Memo: `N#C/C(=C/c1ccc(Cl)c(Cl)c1)CNC(=O)Nc1ccc(Cl)cc1Cl` , reported MIC: > 50 µg/mL

Provide MIC values for the following items, in order.
1. N=c1c(Cc2ccccc2Cl)c[nH]c(=O)n1-c1ccc(Cl)cc1Cl
2. COC(c1ccccc1)C(C#N)CN(Cc1ccccc1)C(=O)Nc1ccc(Cl)c(Cl)c1 (configuration not stated)
3. N#C/C(=C/c1ccc(Cl)c(Cl)c1)CNC(=O)Nc1ccc(Cl)cc1
4. Cc1ccc(-n2c(=O)[nH]cc(Cc3ccccc3Cl)c2=N)cc1Cl
5. N#C/C(=C/c1ccccc1Cl)CNC(=O)Nc1ccc(Cl)cc1
6. N#C/C(=C/c1ccccc1)CNC(=O)Nc1ccc(Cl)cc1Cl
7. N#C/C(=C/c1ccc(Cl)c(Cl)c1)CNC(=S)Nc1ccccc1

output:
50 µg/mL
3.12 µg/mL
> 50 µg/mL
> 50 µg/mL
> 50 µg/mL
> 50 µg/mL
3.12 µg/mL

Provide MIC values for the following items, in order.
1. N#CC(CN(Cc1ccccc1)C(=O)Nc1ccc(Cl)c(Cl)c1)C(O)c1ccccc1 (configuration not stated)
2. Nc1c(Cc2ccccc2Cl)cnc(=S)n1-c1ccccc1
3. N#C/C(=C/c1ccccc1Cl)CNC(=O)Nc1ccc(Cl)c(Cl)c1

output:
["> 50 µg/mL", "> 50 µg/mL", "> 50 µg/mL"]

Provide MIC values for the following items, in order.
1. N#C/C(=C/c1ccccc1Cl)CNC(=O)Nc1ccc(Cl)cc1Cl
2. N#CC(CN(Cc1ccccc1)C(=O)Nc1ccc(Cl)cc1)C(O)c1ccccc1 (configuration not stated)
3. N#CC(CNC(=O)Nc1ccc(Cl)cc1Cl)C(O)c1ccccc1 (configuration not stated)
4. N=c1c(Cc2ccccc2)c[nH]c(=O)n1-c1ccc(Cl)c(Cl)c1
5. N#C/C(=C/c1ccccc1Cl)CNC(=S)Nc1ccccc1
6. N=c1c(Cc2ccc(Cl)c(Cl)c2)c[nH]c(=O)n1-c1ccc(Cl)c(Cl)c1
7. CCn1cc(C(=O)O)c(=O)c2cc(F)c(N3CCNCC3)cc21 [NORFLOXACIN]

output:
> 50 µg/mL
50 µg/mL
> 50 µg/mL
50 µg/mL
> 50 µg/mL
50 µg/mL
0.36 µg/mL
